target: Recombinant human TDO comprising amino acids 19-407 (Homo sapiens); construct: Recombinant human TDO comprising amino acids 19-407 with a N-terminal hexahistidine tag; hexahistidine (His6) (N); made in house; host or cells: E. coli; experiment: TDO2 enzymatic assay (NFK quantified by LCMS); assay type: biochemical; details: 15 nM enzyme, 200 μM L-tryptophan, pH7, 30 minutes pre-incubation at RT; mean values when measured multiple times; read-out: hTDO activity (IC50 in nM)
IC50 values, listed per item
Readout type: IC50

- COC(=O)Nc1ccc(-n2cc(C(O)c3c(C)sc4cncn34)nn2)cc1 (racemic): 8050 nM
- CC(C)(C)OC(=O)Nc1ccc(-n2cc(C(O)c3c(C4CC4)sc4cncn34)nn2)cc1 (racemic): > 10200 nM
- CCc1sc2cncn2c1C(O)c1cn(-c2ccc(S(=O)(=O)N(C)C)cc2)nn1 (racemic): > 10200 nM
- COc1ccc(-n2cc([C@H](O)c3c(C4CC4)sc4cncn34)nn2)cc1: > 10200 nM
- CC(C)Oc1ncc(-n2cc(C(O)c3c(C4CC4)sc4cncn34)nn2)cc1Cl (racemic): > 10200 nM
- OC(c1nc(-c2ccccc2)no1)c1c(C2CC2)sc2cncn12 (racemic): > 10200 nM
- COC(=O)Nc1ccc(-n2cc(C(O)c3c(C4CC4)sc4cncn34)cn2)cc1 (racemic): 1770 nM
- OC(c1cccc(-c2ccccc2)c1)c1c(C2CC2)sc2cncn12 (racemic): > 10200 nM
- COc1ccc(-n2nnc(C(O)c3c(C4CC4)sc4cncn34)c2C)cc1 (racemic): 7010 nM
- COc1cc(C)c(-n2cc(C(O)c3c(C4CC4)sc4cncn34)nn2)c(C)c1 (racemic): > 10200 nM
- OC(c1ccc(-c2cccc(C(F)(F)F)c2)s1)c1c(C2CC2)sc2cncn12 (racemic): > 10200 nM
- COC(=O)c1cccc(Cn2cc(C(O)c3c(C4CC4)sc4cncn34)nn2)c1 (racemic): > 10200 nM
- OC(c1cn(-c2ccc3c(Cl)n[nH]c3c2)nn1)c1c(C2CC2)sc2cncn12 (racemic): > 10200 nM
- CCc1sc2cncn2c1C(O)c1cn(-c2ccc(C(=O)N(C)CC)cc2)nn1 (racemic): > 10200 nM
- CC(C)(O)CCOc1ccc(-n2cc([C@H](O)c3c(C4CC4)sc4cncn34)nn2)cc1Cl: > 10200 nM
- OC(c1ccc(-c2cncc3ccccc23)s1)c1c(C2CC2)sc2cncn12 (racemic): 8620 nM

====

target: Recombinant human TDO comprising amino acids 19-407 (Homo sapiens, UniProt P48775); construct: Recombinant human TDO comprising amino acids 19-407 with a N-terminal hexahistidine tag; hexahistidine (His6) (N); made in house; host or cells: E. coli; assay: TDO2 enzymatic assay (NFK quantified by LCMS); type: biochemical; conditions: 15 nM enzyme, 200 μM L-tryptophan, pH7, 30 minutes pre-incubation at RT; mean values when measured multiple times; read-out: hTDO activity (IC50 in nM)
Sequence (P48775 19-406 limits assumed): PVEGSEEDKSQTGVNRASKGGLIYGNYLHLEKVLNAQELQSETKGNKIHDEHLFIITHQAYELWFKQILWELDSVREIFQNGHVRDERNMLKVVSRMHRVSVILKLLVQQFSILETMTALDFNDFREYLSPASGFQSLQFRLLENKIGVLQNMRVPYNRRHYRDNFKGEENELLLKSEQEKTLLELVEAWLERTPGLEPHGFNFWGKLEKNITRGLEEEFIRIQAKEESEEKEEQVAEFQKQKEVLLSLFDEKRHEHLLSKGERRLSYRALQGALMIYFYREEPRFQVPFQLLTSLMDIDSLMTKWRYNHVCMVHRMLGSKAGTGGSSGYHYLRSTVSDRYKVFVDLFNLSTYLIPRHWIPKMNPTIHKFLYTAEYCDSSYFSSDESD
IC50 values, listed per item
Readout type: IC50 (nM)

• O=[N+]([O-])c1cc(-n2cc(C(O)c3c(-c4ccccc4)sc4cncn34)nn2)ccc1O (racemic) [Example 250] = 2300
• Oc1ccc(-n2cc(C(O)c3c(C4CC4)sc4cncn34)nn2)cc1F (racemic) [Example 150] = 9290
• Oc1ccc(-n2cc(C(O)c3c(C4CC4)sc4cncn34)nn2)cc1Cl (racemic) [Example 148] = 5130
• OC(c1cn(-c2ccccc2)nn1)c1c(C2CCCC2)sc2cncn12 (racemic) [Example 13] = 8410
• OC(c1ccc(-c2ccncc2)s1)c1c(C2CC2)sc2cncn12 (racemic) [Example 168] = 1060
• COc1ncc(-n2cc(C(O)c3c(C4CC4)sc4cncn34)nn2)cn1 (racemic) [Example 67] = 9160
• COc1ccc(-n2cc(C(O)c3c(C)sc4cncn34)cn2)cc1 (racemic) [Example 97] = 1940

====

molecular target: Recombinant human TDO comprising amino acids 19-407 (Homo sapiens); construct: Recombinant human TDO comprising amino acids 19-407 with a N-terminal hexahistidine tag; hexahistidine (His6) (N); made in house; host or cells: E. coli; assay: TDO2 enzymatic assay (NFK quantified by LCMS); assay type: biochemical; conditions: 15 nM enzyme, 200 μM L-tryptophan, pH7, 30 minutes pre-incubation at RT; mean values when measured multiple times; read-out: hTDO activity (IC50 in nM)
Readout type: IC50

- COc1ccc(-n2cc(C(O)c3c(C4CC4)sc4cncn34)nn2)cn1 (racemic): > 10200 nM
- CCCCNC(=O)Nc1ccc(-n2cc(C(O)c3c(C4CC4)sc4cncn34)nn2)cc1 (racemic): 8320 nM
- COc1ccc(-n2cc(C(O)c3c(C4CC4)sc4cncn34)cn2)cc1C#N (racemic): 8140 nM
- OC(c1cn(-c2ccncc2)nn1)c1c(C2CC2)sc2cncn12 (racemic): > 10200 nM
- CCc1sc2cncn2c1C(O)c1cn(-c2ccc(NC(=O)c3ccccc3)cc2)nn1 (racemic): 2710 nM
- CC(=O)Nc1ccc(-n2cc(C(O)c3c(C4CC4)sc4cncn34)cn2)cc1 (racemic): > 10200 nM
- CCc1sc2cncn2c1C(O)c1cn(-c2ccc(C(=O)NCCCOC)cc2)nn1 (racemic): > 10200 nM
- OC(c1cn(-c2ccc(OCC3(F)COC3)c(Cl)c2)nn1)c1c(-c2ccccc2)sc2cncn12 (racemic): > 10200 nM
- COc1ccccc1-c1ccc(C(O)c2c(C3CC3)sc3cncn23)s1 (racemic): > 10200 nM
- COc1ccc(-n2nnc(C(O)c3c(C4CC4)sc4cncn34)c2I)cc1 (racemic): 7280 nM
- CCc1sc2cncn2c1C(O)c1cn(-c2cc(Cl)c(OC)cc2F)nn1 (racemic): 4430 nM
- CNS(=O)(=O)Nc1ccc(-n2cc(C(O)c3c(C4CC4)sc4cncn34)nn2)cc1 (racemic): > 10200 nM
- CC(C)(O)COc1ccc(-n2cc(C(O)c3c(C4CC4)sc4cncn34)nn2)cc1 (racemic): > 10200 nM
- Cc1sc2cncn2c1C(O)c1cn(-c2ccc(C3(CO)CC3)cc2)nn1 (racemic): > 10200 nM
- OC(c1cn(-c2ccccc2)nn1)c1c(C2CC2)sc2cncn12 (racemic): > 10200 nM
- N#Cc1cccc(-c2ccc(C(O)c3c(C4CC4)sc4cncn34)s2)c1 (racemic): 8310 nM

====

Molecular target: Recombinant full-length human IDO1 (Homo sapiens, UniProt P14902)
Construct: Recombinant full-length human IDO1 with a N-terminal hexahistidine tag; hexahistidine (His6) (N); made in house; host or cells: E. coli
Sequence (P14902 whole entry): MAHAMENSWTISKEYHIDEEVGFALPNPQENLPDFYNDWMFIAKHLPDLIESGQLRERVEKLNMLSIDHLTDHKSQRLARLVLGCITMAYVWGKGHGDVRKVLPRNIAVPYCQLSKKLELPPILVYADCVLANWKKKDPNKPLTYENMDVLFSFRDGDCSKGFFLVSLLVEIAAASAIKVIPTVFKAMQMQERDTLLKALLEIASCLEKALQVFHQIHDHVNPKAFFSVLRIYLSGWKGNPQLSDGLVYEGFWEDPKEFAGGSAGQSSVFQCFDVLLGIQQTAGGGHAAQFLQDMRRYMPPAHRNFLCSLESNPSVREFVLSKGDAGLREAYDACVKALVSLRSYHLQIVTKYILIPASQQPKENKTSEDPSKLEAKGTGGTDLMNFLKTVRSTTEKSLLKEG
Test: IDO1 enzymatic assay (NFK quantified by LCMS)
Format: biochemical
Conditions: 2 nM enzyme, 5 μM L-tryptophan, pH6.5, 30 minutes pre-incubation at RT; mean values when measured multiple times; read-out: hIDO activity (IC50 in nM)
Method: 1) Testing Compounds for IDO Inhibitory Activity in an IDO1 Enzymatic Assay: Recombinant full-length human IDO1 with a N-terminal hexahistidine tag expressed in E. coli and purified to homogeneity is incubated at a final concentration of 2 nM in assay buffer consisting of 37.5 mM phosphate buffer at pH6.5 supplemented with 10 mM ascorbic acid, 0.45 μM methylene blue, 50U/ml catalase, 0.01% BSA, and 0.01% Tween 20 (protocol modified from Seegers et al, JBS 2014). […]
IC50 values, listed per item
Readout type: IC50

* CCc1sc2cncn2c1C(O)c1cn(-c2ccc(NC(=O)c3ccccc3)cc2)nn1 (racemic) | 28.7 nM
* CCc1sc2cncn2c1C(O)c1cn(Cc2ccccc2)nn1 (racemic) | 73.6 nM
* CC(C)(O)COc1ccc(-n2cc([C@H](O)c3c(C4CC4)sc4cncn34)nn2)cc1Cl | 7.31 nM
* COc1ccc(-n2cc([C@H](O)c3c(C4CC4)sc4cncn34)nn2)cc1 | 5.98 nM
* CC(=O)c1ccc(-n2cc(C(O)c3c(C4CC4)sc4cncn34)nn2)cc1 (racemic) | 18.4 nM
* COc1ncc(-n2cc(C(O)c3c(C4CC4)sc4cncn34)nn2)cn1 (racemic) | 50.2 nM
* COc1ccc(-n2cc(C(O)c3c(C)sc4cncn34)nn2)cc1 (racemic) | 51.7 nM
* COc1ccc(-n2nnc(C(O)c3c(C4CC4)sc4cncn34)c2I)cc1 (racemic) | 12.1 nM
* CCOc1ncc(-n2cc(C(O)c3c(C4CC4)sc4cncn34)nn2)cc1C(F)(F)F (racemic) | 363 nM
* CC(C)(O)CCOc1ccc(-n2cc([C@H](O)c3c(C4CC4)sc4cncn34)nn2)cc1Cl | 7.12 nM
* CC(C)(O)CCOc1ccc(-n2cc([C@H](O)c3c(C4CC4)sc4cncn34)nn2)cc1 [Example 140a] | 7.31 nM
* N#Cc1ccc(-n2cc(C(O)c3c(C4CC4)sc4cncn34)nn2)cc1 (racemic) | 39.6 nM
* Cn1ncc2cccc(-n3cc(C(O)c4c(C5CC5)sc5cncn45)nn3)c21 (racemic) | 38.5 nM
* O[C@@H](c1cn(-c2ccc(OCCC3(O)CC3)cc2)nn1)c1c(C2CC2)sc2cncn12 [Example 142a] | 9.51 nM
* OC(c1ccc(-c2cccc(C(F)(F)F)c2)s1)c1c(C2CC2)sc2cncn12 (racemic) | 716 nM
* Oc1cccc(-n2cc(C(O)c3c(C4CC4)sc4cncn34)nn2)c1 (racemic) | 27.6 nM
* CC(C)(C)C(=O)Nc1ccc(-n2cc(C(O)c3c(C4CC4)sc4cncn34)nn2)cc1 (racemic) | 13.7 nM
* COc1cccc(-n2cc(C(O)c3c(C4CC4)sc4cncn34)nn2)c1 (racemic) | 35.5 nM
* Oc1ccc(-n2cc(C(O)c3c(C4CC4)sc4cncn34)nn2)cc1Cl (racemic) | 4.31 nM
* CCc1sc2cncn2c1C(O)c1cn(-c2ccc(C3(CO)CC3)cc2)nn1 (racemic) | 60.6 nM
* OC(c1cn(-c2cccc3ccncc23)nn1)c1c(C2CC2)sc2cncn12 (racemic) | 39.6 nM
* CNC(=O)c1ccc(-n2cc(C(O)c3c(C4CC4)sc4cncn34)nn2)cc1 (racemic) | 26 nM
* CCc1sc2cncn2c1C(O)c1cn(-c2ccc(OCCCO)c(Cl)c2)nn1 (racemic) | 2.1 nM
* COc1ccc(-n2cc(C(O)c3c(C4CC4)sc4cncn34)cn2)cc1 (racemic) | 31.8 nM
* COc1ccc(-n2nnc(C(O)c3c(C4CC4)sc4cncn34)c2F)cc1 (racemic) | 32.7 nM
* OC(c1cn(-c2ccc(OCc3ccccc3)nc2)nn1)c1c(C2CC2)sc2cncn12 (racemic) | 32.7 nM
* CCc1sc2cncn2c1C(O)c1cn(-c2ccc(C(=O)NCCO)cc2)nn1 (racemic) | 15.8 nM
* OC(c1cn(-c2ccccc2)nn1)c1c(C2CCCC2)sc2cncn12 (racemic) | 54.4 nM
* Cc1sc2cncn2c1C(O)c1cn(-c2cncc3ccccc23)nn1 (racemic) | 493 nM
* OC(c1cn(-c2cccc3cnccc23)nn1)c1c(C2CC2)sc2cncn12 (racemic) | 24 nM
* Cc1c(C(O)c2c(C3CC3)sc3cncn23)nnn1-c1ccccc1 (racemic) | 17 nM
* CCOc1ncc(-n2cc(C(O)c3c(C4CC4)sc4cncn34)nn2)cc1Cl (racemic) | 24.3 nM
